Biological target: H1 hemagglutinin (A/Solomon Islands/3/2006) (influenza A virus A/Solomon Islands/3/2006)
Assay: ELISA on coated HA, relative Kd (4-parameter fit)

| binder | Kd |
| --- | --- |
| Ab 037 (antibody, V domains shown) VH: EVQLLESGGGLVKPGQSLKLSCAASGFTFTSYAMHWVRQPPGKGLEWVAVVSYDGNYKYYADSVQGRFTISRDNSKNTLYLQMNSLRAEDTAVYYCAKDSRLRSLLYFEWLSQGYFNPWGQGTTLTVSS VL: DIQMTQSPSSLSASVGDRVTITCRSSQSITFNYKNYLGWYQQKPGKAPKLLIYWGSYLESGVPSRFSGSGSGTDFTLTISSLQPEDFATYYCQQHYRTPPSFGQGTKVEIK | 0.075 nM |
| Ab 031 (antibody, V domains shown) VH: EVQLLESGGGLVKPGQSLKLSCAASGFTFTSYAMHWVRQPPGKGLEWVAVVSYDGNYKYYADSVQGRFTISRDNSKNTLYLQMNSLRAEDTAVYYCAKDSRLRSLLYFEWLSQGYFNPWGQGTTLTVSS VL: DIQMTQSPSSLSASVGDRVTITCRSSQSITFNYKNYLAWYQQKPGKAPKLLIYWGSYLESGVPSRFSGSGSGTDFTLTISSLQPEDFATYYCQQHYRTPPSFGQGTKVEIK | < 0.025 nM |
| Ab 005 (antibody, V domains shown) VH: QVQLLETGGGLVKPGQSLKLSCAASGFTFTSYAMHWVRQPPGKGLEWVAVVSYDGNYKYYADSVQGRFTISRDNSKNTLYLQMNSLRAEDTAVYYCAKDSRLRSLLYFEWLSQGYFNPWGQGTTLTVSS VL: DIVMTQSPDTVAVTVGERATINCKSSQTVTFNYKNYLAWYQQKPGQPPKLLIYWASTRESGVPDRFSGSGSGTDFTLTISSLQAEDVAVYYCQQHYRTPPSFGQGTKLDIK | < 0.08 nM |

Values from patent US20220204592A1
